# key: entry, value: Ki
- assay target: Mu-type opioid receptor (Homo sapiens, UniProt P35372)
- Sequence (P35372 whole entry): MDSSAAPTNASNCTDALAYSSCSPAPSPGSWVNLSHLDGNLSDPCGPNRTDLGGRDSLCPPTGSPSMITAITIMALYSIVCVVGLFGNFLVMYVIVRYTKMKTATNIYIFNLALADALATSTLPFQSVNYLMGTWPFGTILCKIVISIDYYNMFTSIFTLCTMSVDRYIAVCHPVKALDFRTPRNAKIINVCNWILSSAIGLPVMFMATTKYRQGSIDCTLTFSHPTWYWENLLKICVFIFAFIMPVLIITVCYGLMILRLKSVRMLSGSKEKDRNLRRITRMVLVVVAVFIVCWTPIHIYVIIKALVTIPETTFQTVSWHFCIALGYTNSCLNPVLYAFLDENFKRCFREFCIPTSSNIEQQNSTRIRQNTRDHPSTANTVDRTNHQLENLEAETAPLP
- test protocol: Displacement of [3H]-diprenorphine from recombinant human MOR transiently expressed in HEK293 cell membranes measured after 60 mins

chemical smiles	Ki
CN1/C(=C/C=C/C=C/C2=[N+](CCCCCC(=O)NCC(=O)NCC(=O)NCCCNC(=N)Nc3ccc4[nH]c5c(c4c3)C[C@@]3(O)[C@H]4Cc6ccc(O)c7c6[C@@]3(CCN4CC3CC3)[C@H]5O7)c3ccc(S(=O)(=O)[O-])cc3C2(C)C)C(C)(C)c2cc(S(=O)(=O)O)ccc21	100 nM
CN1/C(=C/C=C/C2=[N+](CCCCCC(=O)NCC(=O)NCC(=O)NCC(=O)NCC(=O)NCCCNC(=N)Nc3ccc4[nH]c5c(c4c3)C[C@@]3(O)[C@H]4Cc6ccc(O)c7c6[C@@]3(CCN4CC3CC3)[C@H]5O7)c3ccc(S(=O)(=O)[O-])cc3C2(C)C)C(C)(C)c2cc(S(=O)(=O)O)ccc21	110 nM
CN1/C(=C/C=C/C=C/C2=[N+](CCCCCC(=O)NCC(=O)NCC(=O)NCC(=O)NCC(=O)NCCCNC(=N)Nc3ccc4[nH]c5c(c4c3)C[C@@]3(O)[C@H]4Cc6ccc(O)c7c6[C@@]3(CCN4CC3CC3)[C@H]5O7)c3ccc(S(=O)(=O)[O-])cc3C2(C)C)C(C)(C)c2cc(S(=O)(=O)O)ccc21	133 nM
